test system: Plasmodium falciparum; test: Screen against P. falciparum Asexual Blood Stage (ABS), at 5uM; type: functional, Dd2; details: tested at 5 uM
Hit rate of the full screen: of about 65,000 compounds, about 2,100 (3.2%) showed an effect of 50% or more. The median lay at about -52%. This excerpt belongs to a sample that is enriched for strong results.
endpoint: INHIBITION (%)
Please respond with the number in % and leave the unit unwritten.

Reference set, count: 3
# molecule, INHIBITION, %
records = [
    ("CSC(C)(C)CNC(=O)NC1CCN(CC2CC2)C1 (stereo unspecified)", -35.8),
    ("Cn1cc(CCCN2CCCC(c3cc(C(F)(F)F)[nH]n3)C2)cn1 (stereo unspecified)", 33.1),
    ("Cc1cccc(CN2CCC3(CC(C(=O)NCC(C)C)=NO3)C2)c1 (stereo unspecified)", -93.1),
]

Entry O=C(CCN1CCOCC1)NC1CCCN(CC2CCCCC2)C1 (stereo unspecified) under Plasmodium falciparum had INHIBITION of -80.2

Entry O=C(NC1CCN(CC2CC2)C1)N1CCC(OC2CCCCC2)CC1 (stereo unspecified) under Plasmodium falciparum had INHIBITION of 55

Entry NC(=O)CN1CCCC1c1cncc(Oc2ccc(Cl)cc2)n1 (stereo unspecified) under Plasmodium falciparum had INHIBITION of 9.38

* * *

tested on: Plasmodium falciparum; assay: Screen against P. falciparum Asexual Blood Stage (ABS), at 5uM; assay type: functional, Dd2; conditions: tested at 5 uM
Screen size: about 65,000 compounds; about 2,100 (3.2%) showed an effect of 50% or more. The median lay at about -52%. The list comes from a sample in which strong results are over-represented; it also holds close analogues and randomly drawn compounds.
endpoint: INHIBITION (%)
Please respond with the number in % and leave the unit unwritten.

Reference set, count: 6
# molecule, assay.value
measured = [
    ("COc1cccc(CN2CCC3(CC2)CCN(c2ncc(C)cn2)C3)c1", -73.3),
    ("CC(C)Nc1ncnc2c1CCN(C(=O)CCc1ccccc1)CC2", -74.7),
    ("CC(C)CNC(=O)CC1(Cn2cnnn2)CCCCC1", -92.1),
    ("Cc1ccc(CN2Cc3nnn(C)c3C(COCC3CC3)C2)s1 (centres undefined)", -90.4),
    ("CC1Cc2cc(-c3cncn3CC(=O)NC(C)(C)C)ccc2N1C (centres undefined)", 54.2),
    ("CCOc1cc(CN(C)CCC(=O)OC)ccc1OC(F)F", -133),
]

Per the records, this molecule ( Cc1cnc(N2CCC3(CC2)CC3CNC(=O)C2CCC2)nc1 (centres undefined) ) has INHIBITION equal to -57.8

Per the records, this molecule ( CCOc1ccc(OCCN2CCC(N3CCNC3=O)CC2)cc1 ) has INHIBITION equal to -43.4

Per the records, this molecule ( CCCn1ccnc1CN1CCc2[nH]cnc2C1Cc1ccccc1 (centres undefined) ) has INHIBITION equal to 66.5

Per the records, this molecule ( COCCOCC1(CNCc2cccc(OC)c2)C[C@@H](O)[C@@H](O)C1 (some centres undefined) ) has INHIBITION equal to -11.2

Per the records, this molecule ( CCOCCC1(C(=O)N2CCCC(c3ncc[nH]3)C2)CCCC1 (centres undefined) ) has INHIBITION equal to -71.1

Per the records, this molecule ( CCN1CCc2cc(-c3cncn3CC(=O)NC(C)(C)C)ccc21 ) has INHIBITION equal to 66.2

Per the records, this molecule ( COCCOCC1(CNCc2ccc(F)cc2)C[C@@H](O)[C@@H](O)C1 (some centres undefined) ) has INHIBITION equal to 63.6

Per the records, this molecule ( Clc1ccc(N2CCN(CCCN3CCCCC3)CC2)nc1 ) has INHIBITION equal to 69.2

Per the records, this molecule ( Cc1nc2c(c(NCCCN3CCOCC3)n1)CCN(C)C2 ) has INHIBITION equal to -73.4

Per the records, this molecule ( COCCOCC1(CNCc2ccc(OC)cc2)C[C@@H](O)[C@@H](O)C1 (some centres undefined) ) has INHIBITION equal to -77.3
